Reference source for all entries: PubChem BioAssay AID1963963

Tested on: 958667-338-R-J2-PDC tumor spheroids viability
Test: Anticancer human tumor 958667-338-R-J2-PDC patient-derived colon adenocarcinoma cell line growth inhibition [PI3K]
Details: second compound 0.0316 µM; first compound 0.00316 µM; stronger effect = lower value; spheroids with HUVEC and MSC
Overview of reported viability, T/C across a group of compounds:
Write it as a number; the unit % goes unstated.

>>> measuredvalue("CC(=O)c1c(C)c2cnc(Nc3ccc(N4CCNCC4)cn3)nc2n(C2CCCC2)c1=O + COc1c(OCCCN2CCOCC2)ccc2c3n(c(=NC(=O)c4cnc(N)nc4)nc12)CCN3")
75.5
>>> measuredvalue("CC(C)n1nc(-c2ccc3oc(N)nc3c2)c2c(N)ncnc21 + CC(Nc1ccc2c(c1)OCCn1cc(N3C(=O)OCC3C(F)F)nc1-2)C(N)=O")
81.5
>>> measuredvalue("CCN1CCN(Cc2ccc(Nc3ncc(F)c(-c4cc(F)c5nc(C)n(C(C)C)c5c4)n3)nc2)CC1 + Cc1nc(NC(=O)N2CCCC2C(N)=O)sc1-c1ccnc(C(C)(C)C(F)(F)F)c1")
96.6
>>> measuredvalue("Cn1ncnc1[C@H]1c2n[nH]c(=O)c3cc(F)cc(c23)N[C@@H]1c1ccc(F)cc1 + Cc1nc(NC(=O)N2CCCC2C(N)=O)sc1-c1ccnc(C(C)(C)C(F)(F)F)c1")
113
>>> measuredvalue("Cn1ncnc1[C@H]1c2n[nH]c(=O)c3cc(F)cc(c23)N[C@@H]1c1ccc(F)cc1 + CC(Nc1ncnc2nc[nH]c12)c1cc2cccc(Cl)c2c(=O)n1-c1ccccc1")
105
>>> measuredvalue("CC(=O)c1c(C)c2cnc(Nc3ccc(N4CCNCC4)cn3)nc2n(C2CCCC2)c1=O + CC(Nc1ncnc2nc[nH]c12)c1cc2cccc(Cl)c2c(=O)n1-c1ccccc1")
95.3

Would you kindly look at the next entry?
// query Name the recorded viability, T/C of the compound listed here: CCN1CCN(Cc2ccc(Nc3ncc(F)c(-c4cc(F)c5nc(C)n(C(C)C)c5c4)n3)nc2)CC1 + CC(Nc1ncnc2nc[nH]c12)c1cc2cccc(Cl)c2c(=O)n1-c1ccccc1
// result 91.2

====

System: 958667-338-R-J2-PDC tumor spheroids viability
Assay: Anticancer human tumor 958667-338-R-J2-PDC cell line growth inhibition [PI3K];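 note: spheroids exposed to compounds for seven days before readout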
Details: second compound 0.00316 µM; first compound 0.316 µM; stronger effect = lower value; spheroids with HUVEC and MSC
Description: Combinatorial screen of targeted agents with the PI3K inhibitors inavolisib, alpelisib, duvelisib, and copanlisib in multi-cell type tumor spheroids A high-throughput screen of multi-cell type tumor spheroids was designed to identify active combinations of targeted small molecules and PI3K pathway inhibitors. […] Compounds. […] If the clinical Cmax for an agent had not been determined, the highest concentration tested was 10 microM. […]
readoutType: viability, T/C

// query Name the recorded viability, T/C of the compound listed here: CCCS(=O)(=O)Nc1ccc(F)c(C(=O)c2c[nH]c3ncc(-c4ccc(Cl)cc4)cc23)c1F + CC(Nc1ccc2c(c1)OCCn1cc(N3C(=O)OCC3C(F)F)nc1-2)C(N)=O
// result 106%

// query Name the recorded viability, T/C of the compound listed here: CNC(=O)c1ccc(N2C(=S)N(c3ccc(C#N)c(C(F)(F)F)c3)C(=O)C2(C)C)cc1F + COc1c(OCCCN2CCOCC2)ccc2c3n(c(=NC(=O)c4cnc(N)nc4)nc12)CCN3
// result 91.4%

// query Name the recorded viability, T/C of the compound listed here: Cn1nccc1Nc1nccc(-c2ccn(C(CO)c3ccc(Cl)c(F)c3)c(=O)c2)n1 (stereo unspecified) + CC(Nc1ccc2c(c1)OCCn1cc(N3C(=O)OCC3C(F)F)nc1-2)C(N)=O
// result 112%

// query Name the recorded viability, T/C of the compound listed here: C=CC(=O)N1CCN(c2nc(=O)n(-c3c(C)ccnc3C(C)C)c3nc(-c4c(O)cccc4F)c(F)cc23)C(C)C1 (stereo unspecified) + CC(Nc1ccc2c(c1)OCCn1cc(N3C(=O)OCC3C(F)F)nc1-2)C(N)=O
// result 82.4%
